target-desc: MAP kinase-activated protein kinase 2 (Homo sapiens)
Sequence (P49137 whole entry): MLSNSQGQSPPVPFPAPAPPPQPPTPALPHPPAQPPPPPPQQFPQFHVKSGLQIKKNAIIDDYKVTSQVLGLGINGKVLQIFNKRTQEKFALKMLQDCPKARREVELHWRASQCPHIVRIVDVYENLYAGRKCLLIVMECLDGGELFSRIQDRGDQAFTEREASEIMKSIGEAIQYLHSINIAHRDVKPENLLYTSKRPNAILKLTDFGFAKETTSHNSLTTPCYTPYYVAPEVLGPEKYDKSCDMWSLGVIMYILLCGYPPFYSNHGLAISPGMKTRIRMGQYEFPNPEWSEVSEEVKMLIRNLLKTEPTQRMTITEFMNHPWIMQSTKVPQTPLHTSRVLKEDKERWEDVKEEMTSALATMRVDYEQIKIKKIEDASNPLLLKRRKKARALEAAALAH
test-protocol: Inhibition of human MK2
reported-conditions: read-out: IC50
quantity-measured: pIC50
Conceptually, pIC50 converts a concentration in mol/L into minus its log10.

stdin: # input molecule: "COc1cc(-c2ccccc2CN(C(=O)c2ccc(-c3ccc(C#N)cc3)o2)c2ccc(N3CCNCC3)cc2)ccn1" ; wanted: its pIC50
stdout: 7.62

stdin: # input molecule: "N#Cc1ccc(-c2ccc(C(=O)N(Cc3ccccn3)c3ccc(N4CCNCC4)cc3)o2)cc1" ; wanted: its pIC50
stdout: 6.94

stdin: # input molecule: "COc1ncc(-c2ccccc2CN(C(=O)c2ccc(-c3ccc(C#N)cc3)o2)c2ccc(N3CCNCC3)cc2)cn1" ; wanted: its pIC50
stdout: 7.28

stdin: # input molecule: "N#Cc1ccc(-c2ccc(C(=O)N(Cc3cccc(-c4ccccc4)c3)c3ccc(N4CCNCC4)cc3)o2)cc1" ; wanted: its pIC50
stdout: 7.15

stdin: # input molecule: "N#Cc1ccc(-c2ccc(C(=O)N(Cc3ccccc3-c3ccccn3)c3ccc(N4CCNCC4)cc3)o2)cc1" ; wanted: its pIC50
stdout: 7.85

stdin: # input molecule: "COc1cncc(-c2ccccc2CN(C(=O)c2ccc(-c3ccc(C#N)cc3)o2)c2ccc(N3CCNCC3)cc2)c1" ; wanted: its pIC50
stdout: 7.70

stdin: # input molecule: "COc1ccccc1-c1ncccc1CN(C(=O)c1ccc(-c2ccc(C#N)cc2)o1)c1ccc(N2CCNCC2)cc1" ; wanted: its pIC50
stdout: 7.92

stdin: # input molecule: "COc1cccc(-c2ccccc2CN(C(=O)c2ccc(-c3ccc(C#N)cc3)o2)c2ccc(N3CCNCC3)cc2)c1" ; wanted: its pIC50
stdout: 7.92

stdin: # input molecule: "N#Cc1ccc(-c2ccc(C(=O)N(Cc3cccnc3-c3cncnc3)c3ccc(N4CCNCC4)cc3)o2)cc1" ; wanted: its pIC50
stdout: 7.00

stdin: # input molecule: "N#Cc1ccc(-c2ccc(C(=O)N(Cc3ccccn3)C3CCNCC3)o2)cc1" ; wanted: its pIC50
stdout: 5.00

stdin: # input molecule: "N#Cc1ccc(-c2ccc(C(=O)N(Cc3ccc(-c4ccccc4F)cc3)c3ccc(N4CCNCC4)cc3)o2)cc1" ; wanted: its pIC50
stdout: 5.72

stdin: # input molecule: "N#Cc1ccc(-c2ccc(C(=O)N(Cc3ccccc3-c3ccccc3)c3ccc(N4CCNCC4)cc3)o2)cn1" ; wanted: its pIC50
stdout: 6.59

stdin: # input molecule: O=C(c1ccc(-c2ccc(Cl)cc2)o1)N(Cc1ccccn1)C1CCC(N2CCNCC2)CC1 (stereo not given) ; wanted: its pIC50
stdout: 5.32

stdin: # input molecule: "COc1ccncc1-c1ncccc1CN(C(=O)c1ccc(-c2ccc(C#N)cc2)o1)c1ccc(N2CCNCC2)cc1" ; wanted: its pIC50
stdout: 8.05

stdin: # input molecule: "N#Cc1ccc(-c2ccc(C(=O)N(Cc3ccccc3-c3ccc(C#N)cc3)c3ccc(N4CCNCC4)cc3)o2)cc1" ; wanted: its pIC50
stdout: 8.10
